These measurements were taken from BindingDB's records for doi:10.7270/Q2JQ0ZH4.

pIC50 values for the molecules below.
experimentalSystem: Mitochondrial import inner membrane translocase subunit TIM10 (Saccharomyces cerevisiae (strain ATCC 204508 / S288c), UniProt P87108)
Sequence (P87108 whole entry): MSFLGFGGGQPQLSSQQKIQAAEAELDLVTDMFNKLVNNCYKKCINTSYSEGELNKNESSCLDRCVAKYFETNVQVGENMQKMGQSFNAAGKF
methodNotes: inhibitors in tim10-1 mutant yeast luminescence, dose response, counter-screen for tim23-1 inhibitor project, S. cerevisiae, uHTS hits (AID 504657)
pIC50: −log10 of the molar value.

Look over these answered cases.
Answer with the recorded pIC50 for the molecule listed here: COC(=N)C(C#N)N=Cc1ccccc1Cl (stereo not given)
< 4.00

Answer with the recorded pIC50 for the molecule listed here: `O=C1c2ccccc2-c2n[nH]c3cccc1c23`
< 4.00

Answer with the recorded pIC50 for the molecule listed here: `Cc1ccc2nc(-n3c(O)c[nH]c3=S)sc2c1`
< 4.00

Next:
Answer with the recorded pIC50 for the molecule listed here: C(=CN=Nc1nc2ccccc2[nH]1)Cc1ccccc1 [MLS000390936]
< 4.00

Answer with the recorded pIC50 for the molecule listed here: Oc1ccccc1C1=NNC(c2ccccc2)S1 (stereo not given) [MLS001212798]
< 4.00
